Where do the numbers come from? From ChEMBL document CHEMBL3045489.

- Test system: Cercospora beticola
- EXPERIMENT DESCRIPTION: Antifungal activity against Cercospora beticola assessed as inhibition of radial growth on potato dextrose
- Format: functional, organism-based
MEASURED QUANTITY: EC50 (µg/mL)
Use µg/mL as the unit, but write only the number.

In [3]: df
Out[3]:
                                   compound          system_name  measured_quantity  result_value
0  Clc1ccc(C(COCCCc2ccccc2)Cn2cncn2)c(Cl)c1 (racemic)  Cercospora beticola               EC50          0.18
1  Clc1ccc(C(COCc2ccc(OCc3ccc(OCc4ccccc4)cc3)cc2)Cn2cncn2)c(Cl)c1 (racemic)  Cercospora beticola               EC50          0.18

Exam item: What does the data say about its EC50? Entry: N#CCCOCC(Cn1cncn1)c1ccc(Cl)cc1Cl (racemic)
Marked response: 4

Exam item: What does the data say about its EC50? Entry: OCCCOCC(Cn1cncn1)c1ccc(Cl)cc1Cl (racemic)
Marked response: 1.7

Exam item: What does the data say about its EC50? Entry: Clc1ccc(C(COCc2ccc(OCc3ccccc3)cc2)Cn2cncn2)c(Cl)c1 (racemic)
Marked response: 0.2

Exam item: What does the data say about its EC50? Entry: C#CCOCC(Cn1cncn1)c1ccc(Cl)cc1Cl (stereo unspecified)
Marked response: 0.3

====

- Test system: Oculimacula yallundae
- EXPERIMENT DESCRIPTION: Antifungal activity against Oculimacula yallundae assessed as inhibition of radial growth on potato dextrose
- Type: functional, organism-based
MEASURED QUANTITY: EC50 (µg/mL)
Use µg/mL as the unit, but write only the number.

Guide cases for EC50, answers given:
In [3]: df
Out[3]:
                                   compound  display_unit  result_value
0  Clc1ccc(C(COCc2ccccc2)Cn2cncn2)c(Cl)c1 (racemic)         µg/mL          0.35
1  Clc1ccc(C(COCc2ccc(-c3ccccc3)cc2)Cn2cncn2)c(Cl)c1 (racemic)         µg/mL           0.5
2      C=CCOC[C@@H](Cn1cncn1)c1ccc(Cl)cc1Cl         µg/mL          0.28
3  Clc1ccc(C(COCc2ccc(OCc3ccccc3)cc2)Cn2cncn2)c(Cl)c1 (racemic)         µg/mL           0.5
4               C=C(Cn1cncn1)c1ccc(Cl)cc1Cl         µg/mL          0.45
5  N#CCCOCC(Cn1cncn1)c1ccc(Cl)cc1Cl (racemic)         µg/mL            20
6  Clc1ccc(C(COCc2ccc3ccccc3c2)Cn2cncn2)c(Cl)c1 (racemic)         µg/mL             1
7  C=CCOCC(Cn1cncn1)c1ccc(Cl)cc1Cl (racemic)         µg/mL          0.29
8  CC(C)(C)c1ccc(COCC(Cn2cncn2)c2ccc(Cl)cc2Cl)cc1 (racemic)         µg/mL           1.2
9  Clc1ccc([C@H](COCc2ccccc2)Cn2cncn2)c(Cl)c1         µg/mL          0.41

Exam item: Item: Clc1ccc(COCC(Cn2cncn2)c2ccc(Cl)cc2Cl)c(Cl)c1 (racemic) Test system: Oculimacula yallundae Read-out: EC50 Value: ?
Marked response: 0.65

Exam item: Item: Clc1ccc(C(COCc2cccc(Oc3ccccc3)c2)Cn2cncn2)c(Cl)c1 (racemic) Test system: Oculimacula yallundae Read-out: EC50 Value: ?
Marked response: 5

Exam item: Item: C=CCOC[C@H](Cn1cncn1)c1ccc(Cl)cc1Cl Test system: Oculimacula yallundae Read-out: EC50 Value: ?
Marked response: 0.4

Exam item: Item: COc1ccc(COCC(Cn2cncn2)c2ccc(Cl)cc2Cl)cc1 (racemic) Test system: Oculimacula yallundae Read-out: EC50 Value: ?
Marked response: 0.35

Exam item: Item: O=[N+]([O-])c1ccc(COCC(Cn2cncn2)c2ccc(Cl)cc2Cl)cc1 (racemic) Test system: Oculimacula yallundae Read-out: EC50 Value: ?
Marked response: 0.18

====

- Test system: Ustilago maydis
- EXPERIMENT DESCRIPTION: Antifungal activity against Ustilago maydis assessed as inhibition of radial growth on potato dextrose
- Format: functional, organism-based
- APPLIED CONDITIONS: Mycosarcoma maydis
Listed below: EC50 values for each entry.
Use µg/mL as the unit, but write only the number.

                                   compound  result_value
0  Clc1ccc(C(COCc2cccs2)Cn2cncn2)c(Cl)c1 (racemic)           0.1
1  Clc1ccc(C(COCc2ccc(OCc3cccc(OCc4ccccc4)c3)cc2)Cn2cncn2)c(Cl)c1 (racemic)           0.2
2  O=[N+]([O-])c1ccc(COCC(Cn2cncn2)c2ccc(Cl)cc2Cl)cc1 (racemic)          0.08
3      C=CCOC[C@@H](Cn1cncn1)c1ccc(Cl)cc1Cl          0.09
4  Clc1ccc(C(COCCCc2ccccc2)Cn2cncn2)c(Cl)c1 (racemic)          0.15
5  C=C(Cl)COCC(Cn1cncn1)c1ccc(Cl)cc1Cl (racemic)           0.5
6  Clc1ccc(C(COCc2ccc(OCc3ccc(OCc4ccccc4)cc3)cc2)Cn2cncn2)c(Cl)c1 (racemic)           0.2
7  C=CCOCC(Cn1cncn1)c1ccc(Cl)cc1Cl (racemic)          0.22

// switching to the query compound
Exam item: Item: Clc1ccc(C(COCc2ccc3ccccc3c2)Cn2cncn2)c(Cl)c1 (racemic) Test system: Ustilago maydis Read-out: EC50 Value: ?
Marked response: 0.18

====

- System: Cercospora beticola
- EXPERIMENT DESCRIPTION: Antifungal activity against Cercospora beticola assessed as inhibition of radial growth on potato dextrose
- Type: functional, organism-based
Listed below: EC50 values for each entry.
Use µg/mL as the unit, but write only the number.

Guide cases for EC50, answers given:
>>> df
                                   molecule  display_unit  result_value
0               C=C(Cn1cncn1)c1ccc(Cl)cc1Cl         µg/mL           0.6
1       C=CCOC[C@H](Cn1cncn1)c1ccc(Cl)cc1Cl         µg/mL          0.25
2  CC(C)(C)c1ccc(COCC(Cn2cncn2)c2ccc(Cl)cc2Cl)cc1 (racemic)         µg/mL          0.28

Exam item: What does the data say about its EC50? Entry: C=C(C)COCC(Cn1cncn1)c1ccc(Cl)cc1Cl (racemic)
Marked response: 0.15

Exam item: What does the data say about its EC50? Entry: Clc1ccc([C@H](COCc2ccccc2)Cn2cncn2)c(Cl)c1
Marked response: 0.16

Exam item: What does the data say about its EC50? Entry: COc1ccc(COCC(Cn2cncn2)c2ccc(Cl)cc2Cl)cc1 (racemic)
Marked response: 0.1

Exam item: What does the data say about its EC50? Entry: C=CCOCC(Cn1cncn1)c1ccc(Cl)cc1Cl (racemic)
Marked response: 0.21

Exam item: What does the data say about its EC50? Entry: C=C(Cl)COCC(Cn1cncn1)c1ccc(Cl)cc1Cl (racemic)
Marked response: 0.23

Exam item: What does the data say about its EC50? Entry: Clc1ccc(C(COCc2ccc(OCc3cccc(OCc4ccccc4)c3)cc2)Cn2cncn2)c(Cl)c1 (racemic)
Marked response: 0.9

Exam item: What does the data say about its EC50? Entry: O=[N+]([O-])c1ccc(COCC(Cn2cncn2)c2ccc(Cl)cc2Cl)cc1 (racemic)
Marked response: 0.09

Exam item: What does the data say about its EC50? Entry: Clc1ccc(C(COCc2cccc(Oc3ccccc3)c2)Cn2cncn2)c(Cl)c1 (racemic)
Marked response: 0.14

Exam item: What does the data say about its EC50? Entry: CC(C)=CCOCC(Cn1cncn1)c1ccc(Cl)cc1Cl (racemic)
Marked response: 0.18

Exam item: What does the data say about its EC50? Entry: Clc1ccc([C@@H](COCc2ccccc2)Cn2cncn2)c(Cl)c1
Marked response: 0.18

Exam item: What does the data say about its EC50? Entry: Clc1ccc(C(COCc2ccc(-c3ccccc3)cc2)Cn2cncn2)c(Cl)c1 (racemic)
Marked response: 0.18

Exam item: What does the data say about its EC50? Entry: Clc1ccc(COCC(Cn2cncn2)c2ccc(Cl)cc2Cl)c(Cl)c1 (racemic)
Marked response: 0.18

Exam item: What does the data say about its EC50? Entry: FC(F)C(F)(F)OCC(Cn1cncn1)c1ccc(Cl)cc1Cl (stereo unspecified) [TETRACONAZOLE]
Marked response: 0.12

Exam item: What does the data say about its EC50? Entry: Clc1ccc(C(COCc2cccs2)Cn2cncn2)c(Cl)c1 (racemic)
Marked response: 0.2

Exam item: What does the data say about its EC50? Entry: Clc1ccc(C(COC/C=C/c2ccccc2)Cn2cncn2)c(Cl)c1 (racemic)
Marked response: 0.2

Exam item: What does the data say about its EC50? Entry: Clc1ccc(C(COCc2ccc3ccccc3c2)Cn2cncn2)c(Cl)c1 (racemic)
Marked response: 0.23

Exam item: What does the data say about its EC50? Entry: Clc1ccc(C(COCc2ccccc2)Cn2cncn2)c(Cl)c1 (racemic)
Marked response: 0.2
